tgt: human OPRM1 (μ, MOR) (Homo sapiens, UniProt P35372)
Construct: host or cells: CHO-K1
Sequence (P35372 whole entry): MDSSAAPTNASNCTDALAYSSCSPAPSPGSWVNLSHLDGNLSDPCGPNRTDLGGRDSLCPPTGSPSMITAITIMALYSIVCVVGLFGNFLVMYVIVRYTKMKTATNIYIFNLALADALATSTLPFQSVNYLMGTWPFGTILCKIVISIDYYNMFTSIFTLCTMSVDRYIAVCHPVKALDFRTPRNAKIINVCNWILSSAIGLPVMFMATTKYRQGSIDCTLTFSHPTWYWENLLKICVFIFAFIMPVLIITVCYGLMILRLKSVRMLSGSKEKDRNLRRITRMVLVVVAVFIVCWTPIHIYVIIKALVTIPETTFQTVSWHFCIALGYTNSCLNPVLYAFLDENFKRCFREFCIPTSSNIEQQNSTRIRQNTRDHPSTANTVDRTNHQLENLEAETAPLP
Assay type: cell-based
conditions: relative activity from EC50 and Emax of β-arrestin vs cAMP; lower RA = more G-protein biased
Counter-ions that a name gives are not always drawn.
Overview of reported ΔRA of compound across a group of compounds:
Respond using a number only.

compound	ΔRA of compound
CN(C)C(CNC(=O)N1Cc2ccccc2C1)c1ccc(F)cc1Cl (centres unmarked) [Compound 14a, hydrochloride]	−2.07

We now examine a further compound.
May I ask what ΔRA of compound has been recorded for CN(C)C(CNC(=O)N1CCCc2ccccc21)c1ccccc1 (centres unmarked) [Compound 69a] ?
−2.32

---

tgt: human OPRM1 (μ, MOR) (Homo sapiens)
Construct: host or cells: CHO-K1
assay notes: cell-based
conditions: PathHunter human OPRM1 Arrestin CHO-K1 cell line; read-out: β-Arrestin EC50
Procedure: The Discoverx PathHunter® β-Arrestin assay is used to measure β-arrestin-2 activity. The technology is based on Enzyme Fragment Complementation (EFC) with β-galactosidase (β-Gal) as the reporter. […] EA is fused to Q-arrestin-2, and ED is fused to the C-terminus of the GPCR of interest. When a ligand binds and the GPCR is activated, Q-arrestin-2 is recruited to the receptor resulting in an ED/EA complementation, restoring f-Gal activity, which is measured using chemiluminescence. […]
pEC50: −log10 of the molar value. Counter-ions that a name gives are not always drawn.
Overview of reported pEC50 across a group of molecules:

molecule	pEC50
CN(C)C1(CNC(=O)N[C@@H]2CCc3ccccc3C2)CCCCC1 [Compound 55]	< 4.00

May I ask what pEC50 has been recorded for CN(C)[C@@H](CCNC(=O)N[C@H]1CCc2ccccc2C1)c1ccsc1 [Compound 74] ?
< 4.00

May I ask what pEC50 has been recorded for CN(C(=O)OC(C)(C)C)C(CNC(=O)N1Cc2ccc(F)cc2C1)c1ccsc1 (stereo not drawn) [Compound 34] ?
< 4.00

May I ask what pEC50 has been recorded for CN(C)C(CNC(=O)N1CCCc2ccccc21)c1ccccc1 (stereo not drawn) [Compound 69a] ?
5.07

May I ask what pEC50 has been recorded for CNC(CNC(=O)N1Cc2ccccc2C1)c1ccccc1 (stereo not drawn) [Compound 38] ?
5.78

May I ask what pEC50 has been recorded for CN(C)C(CNC(=O)N1CCCc2ccc(O)cc21)c1ccsc1 (stereo not drawn) [Compound 49] ?
< 4.00

May I ask what pEC50 has been recorded for CN(C)C(CNC(=O)N1Cc2ccc(F)cc2C1)c1ccc(F)cc1Cl (stereo not drawn) [Compound 17a, hydrochloride] ?
5.29

May I ask what pEC50 has been recorded for CN(C)[C@H](CCNC(=O)N1CC[C@@H](c2ccccc2)C1)c1ccsc1 [Compound 76] ?
< 4.00

May I ask what pEC50 has been recorded for CN(C)C1(CNC(=O)N[C@H]2CCc3ccccc3C2)CCCC1 [Compound 65] ?
< 4.00

---

Overview of reported β-Arrestin Emax across a group of molecules:
tgt: human OPRM1 (μ, MOR) (Homo sapiens)
Construct: host or cells: CHO-K1
assay notes: cell-based
Value expressed in %; do not type the unit.

Solved entries (count: 3):
molecule	unit text	measured
CN(C)C(CNC(=O)N1Cc2ccccc2C1)c1ccccc1 (single isomer, unassigned) [Compound 58]	%	35.2
CNC(CNC(=O)N1Cc2ccc(F)cc2C1)c1ccc(OC)cc1 (centres unmarked) [Compound 82]	%	2.7
CNC(CNC(=O)N1Cc2ccccc2C1)c1ccsc1 (centres unmarked) [Compound 78]	%	12.8

We now examine a further molecule.
May I ask what β-Arrestin Emax has been recorded for CNC(CNC(=O)N1Cc2ccccc2C1)c1ccsc1 (centres unmarked) [Compound 79] ?
1.7

---

tgt: human OPRM1 (μ, MOR) (Homo sapiens, UniProt P35372)
Construct: host or cells: CHO-K1
assay notes: cell-based
conditions: OPRM1, read-out: cAMP Emax
Structures can show the parent of a compound that is named as a salt.
Overview of reported Emax across a group of compounds:
Put down the number, then write its unit next to it.

compound	tgt	measured
CN(C)[C@@H](CCNC(=O)N1Cc2ccc(F)cc2C1)c1ccsc1 [Compound 30-S]	human OPRM1 (μ, MOR) (Homo sapiens, UniProt P35372)	96.1%
CN(C)C(CNC(=O)NC1CCc2ccccc2C1)c1ccccc1 (stereo not drawn) [Compound 19a, hydrochloride]	human OPRM1 (μ, MOR) (Homo sapiens, UniProt P35372)	86.1%
CNC(CNC(=O)N1Cc2cccc(F)c2C1)c1ccsc1 (stereo not drawn) [Compound 80]	human OPRM1 (μ, MOR) (Homo sapiens, UniProt P35372)	103%
CN(C)C(CNC(=O)N1CCCc2ccc(O)cc21)c1ccsc1 (stereo not drawn) [Compound 49]	human OPRM1 (μ, MOR) (Homo sapiens, UniProt P35372)	97%
CN(C)C(C)(C)CNC(=O)N1Cc2ccc(F)cc2C1 [Compound 62]	human OPRM1 (μ, MOR) (Homo sapiens, UniProt P35372)	81.8%

May I ask what Emax has been recorded for CN(C)C(CNC(=O)N(C)C1CCCc2ccccc21)c1ccsc1 (stereo not drawn) [Compound 13a, hydrochloride] ?
95.3%

May I ask what Emax has been recorded for CN(C)[C@H](CCNC(=O)N1CC[C@@H](c2ccccc2)C1)c1ccsc1 [Compound 76] ?
33%

May I ask what Emax has been recorded for COc1ccc(C(CNC(=O)N2CCCc3cc(F)ccc32)N(C)C)cc1 (stereo not drawn) [Compound 68a] ?
94.6%

May I ask what Emax has been recorded for CN(C)C(CNC(=O)N[C@H]1CCc2ccc(O)cc2C1)c1ccsc1 (stereo partly drawn) [Compound 60] ?
27.5%

---

tgt: human OPRM1 (μ, MOR) (Homo sapiens)
Construct: host or cells: CHO-K1
Format: cell-based
conditions: relative activity from EC50 and Emax of β-arrestin vs cAMP; lower RA = more G-protein biased
Method: In certain embodiments, the ability of a compound to activate G-protein or β-arrestin is not an on/off switch for a given pathway, but rather a continuous function. To capture this, each compound is measured for activity in cell assays that are linked to β-arrestin recruitment and G-protein signaling. By comparing the activity between these two measures (accounting for both EC50 and maximal response reached, Emax) a relative activity (RA) value is determined. […]
Overview of reported ΔRA of compound across a group of molecules:

molecule	measured
CN(C)C(CNC(=O)N1CCCc2ccc(F)cc21)c1ccsc1 (stereo not drawn)	<−2.96
CN(C)C(CNC(=O)N1CCCc2cc(F)ccc21)c1ccccc1 (stereo not drawn) [Compound 70a]	−2.56
CNC(CNC(=O)N1Cc2ccc(F)cc2C1)c1ccc(OC)cc1 (stereo not drawn) [Compound 83]	<−2.96
CN(C)C(CNC(=O)N(C)[C@H]1CCCc2ccccc21)c1ccsc1 (stereo partly drawn)	−1.67

May I ask what ΔRA of compound has been recorded for CN(C)C(CNC(=O)N[C@H]1CCc2ccc(O)cc2C1)c1ccsc1 (stereo partly drawn) ?
<−2.96

May I ask what ΔRA of compound has been recorded for CN(C)C(CNC(=O)N1CCCc2ccc(O)cc21)c1ccsc1 (stereo not drawn) ?
<−2.96

May I ask what ΔRA of compound has been recorded for CN(C)C(C)(C)CNC(=O)N1Cc2ccc(F)cc2C1 ?
<−2.96

May I ask what ΔRA of compound has been recorded for CN(C)C(CNC(=O)N[C@@H]1CCc2ccccc2C1)c1ccsc1 (stereo partly drawn) [Compound 47] ?
<−2.96

May I ask what ΔRA of compound has been recorded for CN(C)C(CNC(=O)N[C@H]1CCc2ccccc2C1)c1ccsc1 (stereo partly drawn) [Compound 67] ?
<−2.96

---

tgt: human OPRM1 (μ, MOR) (Homo sapiens, UniProt P35372)
Construct: host or cells: CHO-K1
assay notes: cell-based
conditions: PathHunter human OPRM1 Arrestin CHO-K1 cell line; read-out: cAMP EC50
Where a name gives a salt, the structure may show the parent alone.
Overview of reported EC50 across a group of compounds:
Value expressed in nM; do not type the unit.

Solved entries (count: 3):
compound	EC50 [nM]
CN(C)C(CNC(=O)N1Cc2ccc(O)cc2C1)c1ccsc1 (stereo not drawn) [Compound 22, hydrobromide]	322
CN(C)C(CNC(=O)N[C@H]1CCc2ccccc2C1)c1ccsc1 (stereo partly drawn) [Compound 51]	29
CN(C)[C@H](CCNC(=O)N[C@@H]1CCc2ccccc2C1)c1ccsc1 [Compound 72]	197

May I ask what EC50 has been recorded for CN(C)C(CNC(=O)N1Cc2ccccc2C1)c1ccsc1 (stereo not drawn) [Compound 1a, hydrochloride] ?
20

May I ask what EC50 has been recorded for CN(C)[C@H](CCNC(=O)N1CC[C@H](c2ccccc2)C1)c1ccsc1 ?
2090

May I ask what EC50 has been recorded for CNC(CNC(=O)N1Cc2ccccc2C1)c1ccccc1 (single isomer, unassigned; (-)) [Compound 38-ent-A] ?
379

May I ask what EC50 has been recorded for CN(C)C(CNC(=O)N1Cc2ccccc2C1)c1ccccc1 (single isomer, unassigned) [Compound 58] ?
132
